- test_summary: BA test (oral absorption)
- Format: in vivo
- test_context: plasma; mice or rats; oral vs intravenous administration

{"compound": "Cn1cc(-c2cnc(C(=O)Nc3nc(-n4cccc4)ccc3N)cn2)cn1 [Compound I-023]", "uom": "%", "bioavailability": 43.7}
{"compound": "N#Cc1ccc(C(=O)Nc2cc(-c3ccc(F)nc3)ccc2N)nc1 [Compound I-092]", "uom": "%", "bioavailability": 22.4}
{"compound": "Cn1cc(-c2cnc(C(=O)Nc3nc(-c4cccs4)ccc3N)cn2)cn1 [Compound I-017]", "uom": "%", "bioavailability": 19.6}
{"compound": "Cn1cc(-c2ccc(C(=O)Nc3cc(-c4cccs4)ccc3N)nc2)cn1 [Compound I-003]", "uom": "%", "bioavailability": 33.8}
{"compound": "C[C@H](F)COc1cnc(C(=O)Nc2cc(-c3ccc(F)nc3)ccc2N)cn1 (racemic) [Compound I-125]", "uom": "%", "bioavailability": 32.1}
{"compound": "Cn1cc(-c2cnc(C(=O)Nc3cc(-c4cccs4)ccc3N)cn2)cn1 [Compound I-006]", "uom": "%", "bioavailability": 35.6}
{"compound": "CCOc1cnc(C(=O)Nc2cc(-c3ccc(F)nc3)ccc2N)cn1 [Compound I-118]", "uom": "%", "bioavailability": 22.7}
{"compound": "Cn1cc(-c2cnc(C(=O)Nc3cc(-c4ccc(F)nc4)ccc3N)cn2)cn1 [Compound I-080]", "uom": "%", "bioavailability": 38.4}
{"compound": "Cn1cc(-c2ccc(N)c(NC(=O)c3cnc(C4CC4)cn3)c2)cn1 [Compound I-130]", "uom": "%", "bioavailability": 37.2}

----------
- test_summary: Metabolism stability test
- Assay type: in vitro ADME
- test_context: human liver microsomes 0.5 mg protein/mL, 30 minutes, 37° C., NADPH
# Met = remaining rate after reaction below 90% (exclusive); Not met = remaining rate after reaction at/above 90%

{"compound": "Cn1cc(-c2cnc(C(=O)Nc3nc(-n4cccc4)ccc3N)cn2)cn1 [Compound I-023]", "class_assignment": "Not met"}
{"compound": "Nc1ccc(-n2cccc2)nc1NC(=O)c1cnc(N2CCOCC2)cn1 [Compound I-030]", "class_assignment": "Not met"}
{"compound": "N#Cc1ccc(C(=O)Nc2cc(-c3ccc(F)nc3)ccc2N)nc1 [Compound I-092]", "class_assignment": "Not met"}
{"compound": "Nc1ccc(-c2ccc(F)nc2)cc1NC(=O)c1ccc2ocnc2n1 [Compound I-148]", "class_assignment": "Not met"}
{"compound": "Cn1cc(-c2cnc(C(=O)Nc3nc(-c4cccs4)ccc3N)cn2)cn1 [Compound I-017]", "class_assignment": "Met"}
{"compound": "Cn1cc(-c2ccc(N)c(NC(=O)c3cnc(C4CC4)cn3)c2)cn1 [Compound I-130]", "class_assignment": "Not met"}

----------
- system_under_test: HDAC2 Human recombinant C-terminal FLAG-tag (Homo sapiens, UniProt Q92769)
- Construct: FLAG (C); purchased BPS Bioscience 50052
- Sequence (Q92769 whole entry): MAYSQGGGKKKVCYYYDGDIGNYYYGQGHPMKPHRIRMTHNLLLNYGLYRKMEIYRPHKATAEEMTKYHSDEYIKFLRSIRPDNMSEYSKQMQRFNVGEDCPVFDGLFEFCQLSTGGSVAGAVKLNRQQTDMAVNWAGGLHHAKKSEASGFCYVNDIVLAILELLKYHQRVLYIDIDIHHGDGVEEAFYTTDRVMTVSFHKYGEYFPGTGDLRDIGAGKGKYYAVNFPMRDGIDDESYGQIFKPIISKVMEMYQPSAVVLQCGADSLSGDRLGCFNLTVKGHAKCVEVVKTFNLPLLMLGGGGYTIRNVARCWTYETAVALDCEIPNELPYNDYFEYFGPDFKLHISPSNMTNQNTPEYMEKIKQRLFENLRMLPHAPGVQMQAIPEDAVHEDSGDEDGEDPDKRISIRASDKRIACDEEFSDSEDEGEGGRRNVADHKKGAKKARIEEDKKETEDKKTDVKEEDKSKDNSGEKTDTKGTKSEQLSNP
- test_summary: Measurement of HDAC2 enzyme inhibitory activity (HTRF)
- Type: biochemical
- test_context: recombinant HDAC2, H3K9ac peptide, 3 hours room temperature; read-out: HDAC2 IC50
pIC50: −log10 of the molar value.
Listed next: entries and their corresponding pIC50.
readout_name: pIC50

{"compound": "Nc1ccc(-c2ccc(F)nc2)cc1NC(=O)c1cnc(N2CC(CO)(CCl)C2)cn1 [Compound I-222]", "result": 7.10}
{"compound": "Nc1ccc(-c2ccc(F)nc2)cc1NC(=O)c1ccc(N2CCCC2)nn1 [Compound I-271]", "result": 7.05}
{"compound": "CC(=O)Nc1ccc(C(=O)Nc2nc(-c3ccccc3)ccc2N)nc1 [Compound I-281]", "result": 6.64}
{"compound": "Nc1ccc(-c2ccc(F)nc2)cc1NC(=O)c1ccc(C2CCC2)cn1 [Compound I-243]", "result": 6.59}
{"compound": "Cn1cc(-c2ccc(N)c(NC(=O)c3cnc(N4Cc5cccnc5C4)cn3)c2)cn1 [Compound I-297]", "result": 7.00}
{"compound": "CC(=O)N(C)c1cnc(C(=O)Nc2cc(-c3cnn(C)c3)ccc2N)cn1 [Compound I-244]", "result": 6.33}
{"compound": "Cn1cc(-c2ccc(C(=O)Nc3cc(-c4cnn(C)c4)ccc3N)nc2)cn1 [Compound I-037]", "result": 6.74}
{"compound": "Cn1cc(-c2ccc(C(=O)Nc3cc(-c4ccc(F)nc4)ccc3N)nc2)nn1 [Compound I-040]", "result": 7.20}

----------
- test_summary: Metabolism stability test
- Type: in vitro ADME
- test_context: human liver microsomes 0.5 mg protein/mL, 30 minutes, 37° C., NADPH
readout_name: remaining rate after reaction (%)

{"molecule": "Cn1cc(-c2ccc(N)c(NC(=O)c3cnc(OCC(F)F)cn3)c2)cn1 [Compound I-152]", "readout_name": "remaining rate after reaction", "uom": "%", "result": 97.9}
{"molecule": "CN(C)c1cnc(C(=O)Nc2cc(-c3cnn(C)c3)ccc2N)cn1 [Compound I-179]", "readout_name": "remaining rate after reaction", "uom": "%", "result": 93.5}
{"molecule": "Cn1cc(-c2cnc(C(=O)Nc3cc(-c4ccc(F)nc4)ccc3N)cn2)cn1 [Compound I-080]", "readout_name": "remaining rate after reaction", "uom": "%", "result": 84.8}
{"molecule": "C[C@H](F)COc1cnc(C(=O)Nc2cc(-c3ccc(F)nc3)ccc2N)cn1 (racemic) [Compound I-125]", "readout_name": "remaining rate after reaction", "uom": "%", "result": 80.4}

----------
- system_under_test: HDAC2 Human recombinant C-terminal FLAG-tag (Homo sapiens, UniProt Q92769)
- Construct: FLAG (C); purchased BPS Bioscience 50052
- test_summary: Measurement of HDAC2 enzyme inhibitory activity (HTRF)
- Type: biochemical
- test_context: recombinant HDAC2, H3K9ac peptide, 3 hours room temperature; read-out: HDAC2 IC50
- Procedure: Test Example 1: Measurement of HDAC2 Enzyme Inhibitory Activity The HDAC2 enzyme inhibitory activity was measured by the method described in the following test example. To each well of a 384-well plate (Corning, 4514), DMSO solution of the test compound was dispensed at 50 nL/well from a final concentration of 99 μM to 8 points (n=2) in the 3-fold dilution series using Echo555 (Beckman Coulter). […]
pIC50: −log10 of the molar value.
Rule: pIC50 of 7 or more gives true; anything lower gives false.

{"molecule": "Nc1ccc(-c2cncs2)cc1NC(=O)c1ccc(OC(F)(F)F)cn1", "system_under_test": "HDAC2 Human recombinant C-terminal FLAG-tag (Homo sapiens, UniProt Q92769)", "class_assignment": "false"}
{"molecule": "Nc1ccc(-c2ccc(F)nc2)cc1NC(=O)c1cnc(N2CC3(CCO3)C2)cn1", "system_under_test": "HDAC2 Human recombinant C-terminal FLAG-tag (Homo sapiens, UniProt Q92769)", "class_assignment": "true"}
{"molecule": "Nc1ccc(-c2ccc(F)nc2)cc1NC(=O)c1ccc(F)cn1", "system_under_test": "HDAC2 Human recombinant C-terminal FLAG-tag (Homo sapiens, UniProt Q92769)", "class_assignment": "false"}
{"molecule": "Cn1cc(-c2cnc(C(=O)Nc3nc(-c4ccc(F)nc4)ccc3N)cn2)cn1", "system_under_test": "HDAC2 Human recombinant C-terminal FLAG-tag (Homo sapiens, UniProt Q92769)", "class_assignment": "false"}
{"molecule": "Nc1ccc(-n2cccc2)nc1NC(=O)c1ccc(N2CCOCC2)cn1", "system_under_test": "HDAC2 Human recombinant C-terminal FLAG-tag (Homo sapiens, UniProt Q92769)", "class_assignment": "false"}
{"molecule": "Nc1ccc(-c2ccc(F)nc2)cc1NC(=O)c1cnc(N2CCCOCC2)cn1", "system_under_test": "HDAC2 Human recombinant C-terminal FLAG-tag (Homo sapiens, UniProt Q92769)", "class_assignment": "true"}
{"molecule": "CC(C)c1ccc(C(=O)Nc2cc(-c3cnn(C)c3)ccc2N)nc1", "system_under_test": "HDAC2 Human recombinant C-terminal FLAG-tag (Homo sapiens, UniProt Q92769)", "class_assignment": "false"}
{"molecule": "Cc1cnc(C(=O)Nc2nc(-n3cccc3)ccc2N)cn1", "system_under_test": "HDAC2 Human recombinant C-terminal FLAG-tag (Homo sapiens, UniProt Q92769)", "class_assignment": "false"}
{"molecule": "Nc1ccc(-c2ccc(F)nc2)cc1NC(=O)c1ccc2c(n1)OCO2", "system_under_test": "HDAC2 Human recombinant C-terminal FLAG-tag (Homo sapiens, UniProt Q92769)", "class_assignment": "true"}
{"molecule": "Cn1cc(-c2ccc(N)c(NC(=O)c3cc4ccccc4cn3)c2)cn1", "system_under_test": "HDAC2 Human recombinant C-terminal FLAG-tag (Homo sapiens, UniProt Q92769)", "class_assignment": "false"}
{"molecule": "Nc1ccc(-c2ccc(F)nc2)cc1NC(=O)c1cnc2[nH]ccc2n1", "system_under_test": "HDAC2 Human recombinant C-terminal FLAG-tag (Homo sapiens, UniProt Q92769)", "class_assignment": "false"}
{"molecule": "Cn1cc(-c2cnc(C(=O)Nc3cc(-c4cccs4)ccc3N)cn2)cn1 [Compound I-006]", "system_under_test": "HDAC2 Human recombinant C-terminal FLAG-tag (Homo sapiens, UniProt Q92769)", "class_assignment": "true"}
